Taken from patent US7087642B2.

# Ki values compiled below
biological target: UniProtKB P12268; assay: biochemical; settings: read-out: Ki

Worked cases, Ki given:
>  <compound>
CCN(CC)CC(CO)OC(=O)NCc1cccc(NC(=O)Nc2ccc(-c3cnco3)c(OC)c2)c1 (stereo not shown) [Compound 80]

>  <Ki>
< 10 nM

$$$$
>  <compound>
CC[C@@H](CC#N)OC(=O)NCc1cccc(NC(=O)Nc2ccc(-c3cnco3)c(OC)c2)c1 [Compound 82]

>  <Ki>
> 50 nM

$$$$
>  <compound>
COc1cc(NC(=O)Nc2cccc(CNC(=O)O[C@H](CCC#N)COCc3ccccc3)c2)ccc1-c1cnco1 [Compound 53]

>  <Ki>
< 10 nM

$$$$

# input for lookup
Prompt: Reported Ki, compound CCC(CC#N)OC(=O)NC(C)c1cccc(NC(=O)Nc2ccc(-c3cnco3)c(OC)c2)c1 (stereo not shown) [Compound 163] : ____
Response: 10 to 50 nM

---

target: IMPDH human type II (Homo sapiens, UniProt P12268); assay: biochemical; conditions: read-out: Ki
observation type: Ki

Here are 5 compounds together with their reported answers.
>  <compound>
CCCC(CC#N)OC(=O)NCc1cccc(NC(=O)Nc2ccc(-c3cnco3)c(OC)c2)c1 (stereo not shown)

>  <measured target>
IMPDH human type II (Homo sapiens, UniProt P12268)

>  <Ki>
< 10 nM

$$$$
>  <compound>
COc1cc(NC(=O)Nc2cccc(CNC(=O)O[C@H](CN(CC3CC3)C3CC3)c3ccccc3)c2)ccc1-c1cnco1

>  <measured target>
IMPDH human type II (Homo sapiens, UniProt P12268)

>  <Ki>
> 50 nM

$$$$
>  <compound>
CC[C@H](CO)OC(=O)NCc1cccc(NC(=O)Nc2ccc(-c3cnco3)c(OC)c2)c1

>  <measured target>
IMPDH human type II (Homo sapiens, UniProt P12268)

>  <Ki>
< 10 nM

$$$$
>  <compound>
COc1cc(NC(=O)Nc2cccc(CNC(=O)OC(CCN(C)C(C)C)c3ccccc3)c2)ccc1-c1cnco1 (stereo not shown)

>  <measured target>
IMPDH human type II (Homo sapiens, UniProt P12268)

>  <Ki>
> 50 nM

$$$$
>  <compound>
COc1cc(NC(=O)Nc2cccc(CNC(=O)O[C@H](CN3CC[S+]([O-])CC3)c3ccccc3)c2)ccc1-c1cnco1

>  <measured target>
IMPDH human type II (Homo sapiens, UniProt P12268)

>  <Ki>
> 50 nM

$$$$

Prompt: Form field: reported Ki of CC[C@H](CO)OC(=O)N[C@@H](C)c1cccc(NC(=O)Nc2ccc(-c3cnco3)c(OC)c2)c1
Response: 10 to 50 nM

Prompt: What value of Ki has been recorded for this entry: CCN(CC(C)C)CC(OC(=O)NCc1cccc(NC(=O)Nc2ccc(-c3cnco3)c(OC)c2)c1)c1ccccc1 (stereo not shown)
Response: > 50 nM

---

Listed compounds paired with reported pIC50
test system: human PBMC T cells; experiment: cells; format: cell-based; details: Homo sapiens, 72 h, read-out: T-cells (IC50)
pIC50: −log10 of the molar value.

Below are worked cases with known answers.
>  <compound>
COc1cc(NC(=O)Nc2cccc(CNC(=O)O[C@H](C)CCC#N)c2)ccc1-c1cnco1

>  <pIC50>
6.00 to 7.00

$$$$
>  <compound>
CCN(CC)C[C@H](OC(=O)NCc1cccc(NC(=O)Nc2ccc(-c3cnco3)c(OC)c2)c1)c1ccccc1

>  <pIC50>
< 6.00

$$$$
>  <compound>
CCCN(CCC(OC(=O)NCc1cccc(NC(=O)Nc2ccc(-c3cnco3)c(OC)c2)c1)c1ccccc1)C(C)C (stereo not drawn)

>  <pIC50>
6.00 to 7.00

$$$$
>  <compound>
CCC(CCN1CCOCC1)OC(=O)NCc1cccc(NC(=O)Nc2ccc(-c3cnco3)c(OC)c2)c1 (stereo not drawn)

>  <pIC50>
6.00 to 7.00

$$$$

Prompt: Using the record for COc1cc(NC(=O)Nc2cccc(CNC(=O)O[C@@H](CN3CCOCC3)c3ccccc3)c2)ccc1-c1cnco1 , report its pIC50.
Response: < 6.00

Prompt: # query: pIC50 of entry CCCN(CC(C)C)CC(OC(=O)NCc1cccc(NC(=O)Nc2ccc(-c3cnco3)c(OC)c2)c1)c1ccccc1 (stereo not drawn)
Response: < 6.00

Prompt: Which pIC50 reading was recorded for the compound COc1cc(NC(=O)Nc2cccc(CNC(=O)OCCCOP(=O)(O)O)c2)ccc1-c1cnco1 ?
Response: > 7.00

Prompt: So what does the record say about pIC50 for COc1cc(NC(=O)Nc2cccc(CNC(=O)O[C@@H](CO)CC#N)c2)ccc1-c1cnco1 ?
Response: 6.00 to 7.00

Prompt: Would you kindly share the measured pIC50 for COc1cc(NC(=O)Nc2cccc(CNC(=O)OC(CCN(C)C)c3ccccc3)c2)ccc1-c1cnco1 (stereo not drawn) ?
Response: 6.00 to 7.00

Prompt: Quick one: pIC50 for COc1cc(NC(=O)Nc2cccc(CNC(=O)OC(C)CC#N)c2)ccc1-c1cnco1 (stereo not drawn) ?
Response: > 7.00

Prompt: // query pIC50 value for entry COc1cc(NC(=O)Nc2cccc(CNC(=O)OC(CN(CC(C)C)CC(C)C)c3ccccc3)c2)ccc1-c1cnco1 (stereo not drawn)
Response: < 6.00

Prompt: Form field: reported pIC50 of COc1cc(NC(=O)Nc2cccc(CNC(=O)OC[C@@H](N)CC#N)c2)ccc1-c1cnco1
Response: < 6.00
